measured_target: T1, RXFP1 receptor (endogenous, on OVCAR5 cells) (UniProt Q9HBX9 1-757, limits assumed)
T1 sequence (looked up): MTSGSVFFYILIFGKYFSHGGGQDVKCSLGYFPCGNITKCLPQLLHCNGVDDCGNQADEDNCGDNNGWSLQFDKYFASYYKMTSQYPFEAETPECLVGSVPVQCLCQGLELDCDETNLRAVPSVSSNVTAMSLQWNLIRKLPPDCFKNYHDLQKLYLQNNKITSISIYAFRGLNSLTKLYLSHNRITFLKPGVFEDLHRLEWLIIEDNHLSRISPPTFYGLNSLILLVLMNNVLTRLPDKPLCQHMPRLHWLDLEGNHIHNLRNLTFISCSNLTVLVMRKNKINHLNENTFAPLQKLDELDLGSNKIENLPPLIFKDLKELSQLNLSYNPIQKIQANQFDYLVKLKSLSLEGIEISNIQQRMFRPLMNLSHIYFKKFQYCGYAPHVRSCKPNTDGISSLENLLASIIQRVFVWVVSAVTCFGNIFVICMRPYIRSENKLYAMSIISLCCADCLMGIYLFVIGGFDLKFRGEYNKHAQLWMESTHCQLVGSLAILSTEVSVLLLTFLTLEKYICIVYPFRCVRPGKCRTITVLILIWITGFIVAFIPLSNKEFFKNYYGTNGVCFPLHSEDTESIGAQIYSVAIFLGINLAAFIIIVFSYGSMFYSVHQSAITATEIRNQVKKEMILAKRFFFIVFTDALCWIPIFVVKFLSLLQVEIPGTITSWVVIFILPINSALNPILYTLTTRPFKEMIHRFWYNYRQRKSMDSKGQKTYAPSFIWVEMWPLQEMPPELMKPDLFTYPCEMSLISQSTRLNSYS
measurement_protocol: cell-based or functional assay
Starred links: 1 amine or outer side, 2 acyl side, 3 side chain; linkers in the order of their positions; H or OH if unused. Non-standard residues stand in square brackets, D forms with d. Groups on a side chain read outwards from the residue. *: point of attachment. TTDS = 4-[3-[2-[2-(3-aminopropoxy)ethoxy]ethoxy]propylamino]-4-oxo-butanoyl; γGlu = O=C(O)[C@H](CCC(=O)[*:2])N[*:1]; Palmitoyl = CCCCCCCCCCCCCCCC(=O)*; αMeK = C[C@](N)(CCCCN)C(=O)O; hLys = NCCCCC[C@H](N)C(=O)O; Aib = CC(C)(N)C(=O)O
Assign EMax, OVCAR 5 cells (cAMP) to each entry below.
Return type: number; implicit unit %.

Enquiry: GET /values?readout=EMax, OVCAR 5 cells (cAMP)&item= Ac-LEGREKVRAK(Ac)I[Aib][Aib]EGK([TTDS-TTDS-TTDS-γGlu-γGlu-γGlu-Palmitoyl])STFS[αMeK]RAK(Ac)-NH2 [peptide of SEQ ID NO: 3]
Return: 97

Enquiry: Entry Ac-LEGREKVRAK(Ac)I[Aib][Aib]EGK([TTDS-TTDS-TTDS-γGlu-γGlu-γGlu-Palmitoyl])SKWS[Aib]RKK(Ac)-NH2 [peptide of SEQ ID NO: 83] please
Return: 94

Enquiry: Entry Ac-LEGREKVRAK(Ac)I[Aib][Aib]EGK([TTDS-TTDS-γGlu-γGlu-γGlu-Palmitoyl])STWS[dK]RAK(Ac)-NH2 [peptide of SEQ ID NO: 17] please
Return: 91

Enquiry: Entry Ac-LEGRE[hLys]VRAK(Ac)I[Aib][Aib]EGK([TTDS-TTDS-TTDS-γGlu-γGlu-γGlu-Palmitoyl])STFS[αMeK]RAK(Ac)-NH2 [peptide of SEQ ID NO: 28] please
Return: 88
